Tested on: CCNK
Experiment: NanoLuc-CCNK degradation assay (HEK293T_Nluc_CCNK-tagged cells)
Assay type: cell-based
Details: 4 h incubation, HEK293T_Nluc_CCNK-tagged cells
endpoint: NanoLuc-CCNK degradation DC50 Activity Class

Record excerpt, results attached:
Which NanoLuc-CCNK degradation DC50 Activity Class reading was recorded for the molecule Cc1ccc(N2CC(C(=O)Nc3ncc(C(F)(F)F)s3)CC2=O)cc1 (stereo not drawn) ?
C (1.0 μM≤DC50<0.50 μM)

Which NanoLuc-CCNK degradation DC50 Activity Class reading was recorded for the molecule O=C(Nc1ncc(C(F)(F)F)s1)C1CC(=O)N(c2ccc3c(c2)CCC3)C1 (stereo not drawn) ?
B (0.50 μM≤DC50<0.10 μM)

Which NanoLuc-CCNK degradation DC50 Activity Class reading was recorded for the molecule O=C(Nc1ncc(C(F)(F)F)s1)C1CC(=O)N(Cc2ccc(Cl)cc2)C1 (stereo not drawn) ?
C (1.0 μM≤DC50<0.50 μM)

Which NanoLuc-CCNK degradation DC50 Activity Class reading was recorded for the molecule O=C(CCn1cnc2ccccc2c1=O)Nc1ncc(C(F)(F)F)s1 ?
B (0.50 μM≤DC50<0.10 μM)

Which NanoLuc-CCNK degradation DC50 Activity Class reading was recorded for the molecule Cc1ccc2c(CC(=O)Nc3cc(C4CC4)[nH]n3)coc2c1C ?
D (10 μM≤DC50<1.0 μM)

Further cases:
Which NanoLuc-CCNK degradation DC50 Activity Class reading was recorded for the molecule Cc1ccc2c(CC(=O)Nc3cc(C(F)(F)F)[nH]n3)coc2c1C ?
B (0.50 μM≤DC50<0.10 μM)

Which NanoLuc-CCNK degradation DC50 Activity Class reading was recorded for the molecule Cc1ccc(NC(=O)Cc2coc3c(C)c(C)ccc23)nc1 ?
D (10 μM≤DC50<1.0 μM)

Which NanoLuc-CCNK degradation DC50 Activity Class reading was recorded for the molecule O=C(CCn1cnc2ccc(Br)cc2c1=O)Nc1ncc(C(F)(F)F)s1 ?
B (0.50 μM≤DC50<0.10 μM)

Which NanoLuc-CCNK degradation DC50 Activity Class reading was recorded for the molecule O=C(Cc1c[nH]c2nccc(Cl)c12)Nc1ncc(C(F)(F)F)s1 ?
D (10 μM≤DC50<1.0 μM)

Data provenance is patent US20240132485A1.
